tested on: NK-92 (IL-2 2.5 ng/mL); experiment: drug sensitivity score (DSS) (DSS units); higher = more sensitive; extreme values may be limits of the assay; conditions: 72 h
Class true: drug sensitivity score at least 0.3. Class false: drug sensitivity score below 0.3.

| Compound | Experimental System | Label Value |
| --- | --- | --- |
| CC(C)(O)CC(=O)NCCn1ccc2ncnc(Nc3ccc(Oc4cccc(C(F)(F)F)c4)c(Cl)c3)c21 [TAK-285] (max concentration tested 2500 nM) | NK-92 (IL-2 2.5 ng/mL) | true |

Is it the case that CO[C@H]1C[C@@H]2CC[C@@H](C)[C@@](O)(O2)C(=O)C(=O)N2CCCC[C@H]2C(=O)O[C@H]([C@H](C)C[C@@H]2CC[C@@H](OP(C)(C)=O)[C@H](OC)C2)CC(=O)[C@H](C)/C=C(\C)[C@@H](O)[C@@H](OC)C(=O)[C@H](C)C[C@H](C)/C=C/C=C/C=C/1C [Ridaforolimus] (max concentration tested 100 nM) has drug sensitivity score reaching or exceeding 0.3?
true

Is it the case that Oc1ncnc2[nH]ncc12 [Allopurinol] (max concentration tested 10000 nM) has drug sensitivity score reaching or exceeding 0.3?
true

Is it the case that CCCCC(=O)OCC(=O)[C@]1(O)Cc2c(O)c3c(c(O)c2[C@@H](O[C@H]2C[C@H](NC(=O)C(F)(F)F)[C@H](O)[C@H](C)O2)C1)C(=O)c1c(OC)cccc1C3=O [Valrubicin] (max concentration tested 5000 nM) has drug sensitivity score reaching or exceeding 0.3?
true

Is it the case that O=c1[nH]cc(F)c(=O)[nH]1 [Fluorouracil] (max concentration tested 10000 nM) has drug sensitivity score reaching or exceeding 0.3?
true

Is it the case that CC(=O)O[C@H]1C(=O)[C@@]2(C)[C@H]([C@H](OC(=O)c3ccccc3)[C@]3(O)C[C@H](OC(=O)[C@H](O)[C@@H](NC(=O)c4ccccc4)c4ccccc4)C(C)=C1C3(C)C)[C@]1(OC(C)=O)CO[C@@H]1C[C@@H]2O [Paclitaxel] (max concentration tested 1000 nM) has drug sensitivity score reaching or exceeding 0.3?
true

Is it the case that CC(C)C[C@H](NC(=O)[C@H](Cc1ccccc1)NC(=O)c1cnccn1)B(O)O [Bortezomib] (max concentration tested 1000 nM) has drug sensitivity score reaching or exceeding 0.3?
true

Is it the case that C#Cc1cccc(Nc2ncnc3cc(OC)c(OCCCCCCC(=O)NO)cc23)c1 [CUDC-101] (max concentration tested 10000 nM) has drug sensitivity score reaching or exceeding 0.3?
true

Is it the case that Cn1cnc2c(F)c(Nc3ccc(Br)cc3F)c(C(=O)NOCCO)cc21 [Binimetinib] (max concentration tested 1000 nM) has drug sensitivity score reaching or exceeding 0.3?
false

Is it the case that O=C(c1ccc(C(=O)N2CCC(N3CCCC3)CC2)c(Nc2ccccc2)c1)N1CCC(N2CCCC2)CC1 [UNC1215] (max concentration tested 30000 nM) has drug sensitivity score reaching or exceeding 0.3?
false
